Values from patent US6693165B2

assayTarget: human MC4 receptor (Homo sapiens)
Construct: expressed in transfected cells; host or cells: Chinese hamster ovary (CHO) cells
procedureDetails: Competitive binding assay, human MC4 receptor
particulars: selectivity ratio of hMC-5R to hMC-4R binding values
Numbered stars: 1 amine (or outer) side, 2 acyl side, 3 side chain; on linkers, the order of the positions; unused ones are H or OH. Bridge positions count the residues as written; N and C are the ends. Square brackets hold non-standard residues; d marks the D form. Peptide text beside a SMILES is read from it. dPhe(4-tBu) = CC(C)(C)c1ccc(C[C@@H](N)C(=O)O)cc1; dPhe(4-Cl) = N[C@H](Cc1ccc(Cl)cc1)C(=O)O; dPhe(4-F) = N[C@H](Cc1ccc(F)cc1)C(=O)O; d2Nal = N[C@H](Cc1ccc2ccccc2c1)C(=O)O; Maleoyl = O=C(/C=C\C(=O)[*:2])[*:1]; dBta = N[C@H](Cc1csc2ccccc12)C(=O)O; Suc = O=C(CCC(=O)[*:2])[*:1]
Measured 5:4 values are reported for all entries that follow.
Respond using a number only.

[
  {
    "compound": "N=C(N)NCCC[C@@H]1NC(=O)[C@@H](Cc2ccc3ccccc3c2)NC(=O)/C=C\\C(=O)NCCCC[C@@H](C(N)=O)NC(=O)[C@H](Cc2c[nH]c3ccccc23)NC1=O [Example 12] ([d2Nal]RWK-NH2; linker N-4 via Maleoyl)",
    "assayTarget": "human MC4 receptor (Homo sapiens)",
    "observedResult": 270
  },
  {
    "compound": "CC(C)(C)c1ccc(C[C@H]2NC(=O)CCC(=O)NCCCC[C@@H](C(N)=O)NC(=O)[C@H](Cc3c[nH]c4ccccc34)NC(=O)[C@H](CCCNC(=N)N)NC2=O)cc1 [Example 14] ([dPhe(4-tBu)]RWK-NH2; linker N-4 via Suc)",
    "assayTarget": "human MC4 receptor (Homo sapiens)",
    "observedResult": 54
  },
  {
    "compound": "N=C(N)NCCC[C@@H]1NC(=O)[C@@H](Cc2ccc3ccccc3c2)NC(=O)C2CC2C(=O)NCCCC[C@@H](C(N)=O)NC(=O)[C@H](Cc2c[nH]c3ccccc23)NC1=O (single isomer, unassigned) [11 a]",
    "assayTarget": "human MC4 receptor (Homo sapiens)",
    "observedResult": 316
  },
  {
    "compound": "CC(=O)N[C@H]1CC(=O)NCCCC[C@@H](C(N)=O)NC(=O)[C@H](Cc2c[nH]c3ccccc23)NC(=O)[C@H](CCCNC(=N)N)NC(=O)[C@@H](Cc2ccc3ccccc3c2)NC1=O [Example 6] (Ac-D[d2Nal]RWK-NH2; lactam 1-5)",
    "assayTarget": "human MC4 receptor (Homo sapiens)",
    "observedResult": 234
  },
  {
    "compound": "N=C(N)NCCC[C@@H]1NC(=O)[C@@H](Cc2ccc(Cl)cc2)NC(=O)CCC(=O)NCCCC[C@@H](C(N)=O)NC(=O)[C@H](Cc2c[nH]c3ccccc23)NC1=O [Example 17] ([dPhe(4-Cl)]RWK-NH2; linker N-4 via Suc)",
    "assayTarget": "human MC4 receptor (Homo sapiens)",
    "observedResult": 126
  }
]

5:4 lookup needed for N=C(N)NCCC[C@@H]1NC(=O)[C@@H](Cc2ccc(F)cc2)NC(=O)CCC(=O)NCCCC[C@@H](C(N)=O)NC(=O)[C@H](Cc2c[nH]c3ccccc23)NC1=O [Example 19] ([dPhe(4-F)]RWK-NH2; linker N-4 via Suc) , thanks.
143

5:4 lookup needed for N=C(N)NCCC[C@@H]1NC(=O)[C@@H](Cc2csc3ccccc23)NC(=O)CCC(=O)NCCCC[C@@H](C(N)=O)NC(=O)[C@H](Cc2c[nH]c3ccccc23)NC1=O [Example 16] ([dBta]RWK-NH2; linker N-4 via Suc) , thanks.
44

5:4 lookup needed for N=C(N)NCCC[C@@H]1NC(=O)[C@@H](Cc2ccc3ccccc3c2)NC(=O)[C@H](CCCCN)NC(=O)CCC(=O)NCCCC[C@@H](C(N)=O)NC(=O)[C@H](Cc2c[nH]c3ccccc23)NC1=O [Example 24] (K[d2Nal]RWK-NH2; linker N-5 via Suc) , thanks.
250

----------
Measured IC50 values are reported for all entries that follow.
assayTarget: human MC3 receptor (Homo sapiens)
Sequence (P41968 whole entry): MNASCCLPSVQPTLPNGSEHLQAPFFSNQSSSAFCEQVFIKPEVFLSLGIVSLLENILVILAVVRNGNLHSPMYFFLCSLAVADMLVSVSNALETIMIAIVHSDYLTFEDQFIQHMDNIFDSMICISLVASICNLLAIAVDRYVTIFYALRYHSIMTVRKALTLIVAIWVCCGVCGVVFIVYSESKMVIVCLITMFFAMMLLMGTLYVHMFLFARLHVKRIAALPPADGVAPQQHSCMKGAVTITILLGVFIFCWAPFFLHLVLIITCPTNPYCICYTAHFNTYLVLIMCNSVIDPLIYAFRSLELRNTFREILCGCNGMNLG
Numbered stars: 1 amine (or outer) side, 2 acyl side, 3 side chain; on linkers, the order of the positions; unused ones are H or OH. Bridge positions count the residues as written; N and C are the ends. Square brackets hold non-standard residues; d marks the D form. Peptide text beside a SMILES is read from it. d2Nal = N[C@H](Cc1ccc2ccccc2c1)C(=O)O; dBta = N[C@H](Cc1csc2ccccc12)C(=O)O; Suc = O=C(CCC(=O)[*:2])[*:1]
Output spec: scalar in nM, unitless text.

Consider the following illustrative entries.
[
  {
    "molecule": "N=C(N)NCCC[C@@H]1NC(=O)[C@@H](Cc2ccc3ccccc3c2)NC(=O)[C@H](CCCCN)NC(=O)CCC(=O)NCCCC[C@@H](C(N)=O)NC(=O)[C@H](Cc2c[nH]c3ccccc23)NC1=O [Example 24] (K[d2Nal]RWK-NH2; linker N-5 via Suc)",
    "observedResult": 3000
  },
  {
    "molecule": "CC(=O)N[C@H]1CC(=O)NCCCC[C@@H](C(N)=O)NC(=O)[C@H](Cc2c[nH]c3ccccc23)NC(=O)[C@H](CCCNC(=N)N)NC(=O)[C@@H](Cc2ccc3ccccc3c2)NC1=O [Example 6] (Ac-D[d2Nal]RWK-NH2; lactam 1-5)",
    "observedResult": 220
  },
  {
    "molecule": "N=C(N)NCCC[C@@H]1NC(=O)[C@@H](Cc2ccc3ccccc3c2)NC(=O)C2CC2C(=O)NCCCC[C@@H](C(N)=O)NC(=O)[C@H](Cc2c[nH]c3ccccc23)NC1=O (single isomer, unassigned) [11 a]",
    "observedResult": 130
  }
]

// lookup IC50 | system=human MC3 receptor (Homo sapiens) | key= N=C(N)NCCC[C@@H]1NC(=O)[C@@H](Cc2csc3ccccc23)NC(=O)CCC(=O)NCCCC[C@@H](C(N)=O)NC(=O)[C@H](Cc2c[nH]c3ccccc23)NC1=O [Example 16] ([dBta]RWK-NH2; linker N-4 via Suc)
5600

----------
assayTarget: human MC3 receptor (Homo sapiens)
Numbered stars: 1 amine (or outer) side, 2 acyl side, 3 side chain; on linkers, the order of the positions; unused ones are H or OH. Bridge positions count the residues as written; N and C are the ends. Square brackets hold non-standard residues; d marks the D form. Peptide text beside a SMILES is read from it. dPhe(4-F) = N[C@H](Cc1ccc(F)cc1)C(=O)O; d2Nal = N[C@H](Cc1ccc2ccccc2c1)C(=O)O; Suc = O=C(CCC(=O)[*:2])[*:1]; Dap = NC[C@H](N)C(=O)O
recordedMetric: pIC50
Scale: pIC50 equals -log10([C]), with [C] in mol/L.

Consider the following illustrative entries.
[
  {
    "compound": "NCCCC[C@@H]1NC(=O)[C@@H](Cc2ccc3ccccc3c2)NC(=O)CCC(=O)NCCCC[C@@H](C(N)=O)NC(=O)[C@H](Cc2c[nH]c3ccccc23)NC1=O [Example 20] ([d2Nal]KWK-NH2; linker N-4 via Suc)",
    "pIC50": 5.43
  },
  {
    "compound": "N=C(N)NCCC[C@@H]1NC(=O)[C@@H](Cc2ccc3ccccc3c2)NC(=O)[C@H](Cc2c[nH]cn2)NC(=O)CCC(=O)NCCCC[C@@H](C(N)=O)NC(=O)[C@H](Cc2c[nH]c3ccccc23)NC1=O [Example 7] (H[d2Nal]RWK-NH2; linker N-5 via Suc)",
    "pIC50": 7.28
  },
  {
    "compound": "N=C(N)NCCC[C@@H]1NC(=O)[C@@H](Cc2ccc3ccccc3c2)NC(=O)[C@H](Cc2c[nH]cn2)NC(=O)CCC(=O)NC[C@@H](C(N)=O)NC(=O)[C@H](Cc2c[nH]c3ccccc23)NC1=O [Example 8] (H[d2Nal]RW[Dap]-NH2; linker N-5 via Suc)",
    "pIC50": 7.72
  }
]

Shifting focus to the compound that follows.
// lookup pIC50 | system=human MC3 receptor (Homo sapiens) | key= N=C(N)NCCC[C@@H]1NC(=O)[C@@H](Cc2ccc(F)cc2)NC(=O)CCC(=O)NCCCC[C@@H](C(N)=O)NC(=O)[C@H](Cc2c[nH]c3ccccc23)NC1=O [Example 19] ([dPhe(4-F)]RWK-NH2; linker N-4 via Suc)
5.32

----------
assayTarget: human MC4 receptor (Homo sapiens, UniProt P32245)
Construct: expressed in transfected cells; host or cells: Chinese hamster ovary (CHO) cells
Sequence (P32245 whole entry): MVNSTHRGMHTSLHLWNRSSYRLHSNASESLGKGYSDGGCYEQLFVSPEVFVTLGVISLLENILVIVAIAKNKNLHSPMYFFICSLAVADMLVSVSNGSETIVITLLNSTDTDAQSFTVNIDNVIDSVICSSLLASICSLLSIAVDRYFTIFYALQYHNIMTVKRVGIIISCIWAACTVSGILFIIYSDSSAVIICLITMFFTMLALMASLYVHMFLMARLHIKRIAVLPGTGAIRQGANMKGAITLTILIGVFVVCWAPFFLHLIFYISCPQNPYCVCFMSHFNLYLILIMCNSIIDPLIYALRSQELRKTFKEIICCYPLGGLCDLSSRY
procedureDetails: Competitive binding assay, human MC4 receptor
particulars: CHO cell membranes expressing human MC4 receptor; 200 pM [125I]-NDP-α-MSH; three independent experiments; read-out: hMC-4R (binding data)
Description: The peptides of the present invention were evaluated for antagonist activity in receptor binding assay. Crude membrane preparations were obtained from Chinese hamster ovary cells expressing human MC3, MC4, and MC5 receptors. Cells were rinsed with phosphate-buffered saline (PBS) lacking CaCl2 or MgCl2 (Life Technologies, Gaithersburg, Md., USA), and then detached with enzyme-free dissociation media (Specialty Media, Lavellette, N.J., USA). […]
Numbered stars: 1 amine (or outer) side, 2 acyl side, 3 side chain; on linkers, the order of the positions; unused ones are H or OH. Bridge positions count the residues as written; N and C are the ends. Square brackets hold non-standard residues; d marks the D form. Peptide text beside a SMILES is read from it. dPhe(4-tBu) = CC(C)(C)c1ccc(C[C@@H](N)C(=O)O)cc1; d2Nal = N[C@H](Cc1ccc2ccccc2c1)C(=O)O; Suc = O=C(CCC(=O)[*:2])[*:1]; Dap = NC[C@H](N)C(=O)O
recordedMetric: IC50

Consider the following illustrative entries.
[
  {
    "compound": "CC(=O)N[C@H]1CC(=O)NCCCC[C@@H](C(N)=O)NC(=O)[C@H](Cc2c[nH]c3ccccc23)NC(=O)[C@H](CCCNC(=N)N)NC(=O)[C@@H](Cc2ccc3ccccc3c2)NC1=O [Example 6] (Ac-D[d2Nal]RWK-NH2; lactam 1-5)",
    "assayTarget": "human MC4 receptor (Homo sapiens, UniProt P32245)",
    "IC50": "4.7 nM"
  },
  {
    "compound": "N=C(N)NCCC[C@@H]1NC(=O)[C@@H](Cc2ccc3ccccc3c2)NC(=O)[C@H](Cc2c[nH]cn2)NC(=O)CCC(=O)NC[C@@H](C(N)=O)NC(=O)[C@H](Cc2c[nH]c3ccccc23)NC1=O [Example 8] (H[d2Nal]RW[Dap]-NH2; linker N-5 via Suc)",
    "assayTarget": "human MC4 receptor (Homo sapiens, UniProt P32245)",
    "IC50": "0.2 nM"
  },
  {
    "compound": "CC(C)(C)c1ccc(C[C@H]2NC(=O)CCC(=O)NCCCC[C@@H](C(N)=O)NC(=O)[C@H](Cc3c[nH]c4ccccc34)NC(=O)[C@H](CCCNC(=N)N)NC2=O)cc1 [Example 14] ([dPhe(4-tBu)]RWK-NH2; linker N-4 via Suc)",
    "assayTarget": "human MC4 receptor (Homo sapiens, UniProt P32245)",
    "IC50": "46 nM"
  }
]

IC50 lookup needed for N=C(N)NCCC[C@@H]1NC(=O)[C@@H](Cc2ccc3ccccc3c2)NC(=O)C2CC2C(=O)NCCCC[C@@H](C(N)=O)NC(=O)[C@H](Cc2c[nH]c3ccccc23)NC1=O (single isomer, unassigned) , thanks.
1.6 nM
